Each item that follows carries a reported protein stability index.
B1: GMCL1 (parent)
chain: FCYCAGSHKRKRSSGSFCYCHPDS

- Variants of: B1
- test_summary: protein stability index of a GFP-peptide fusion (GPS, HEK-293T) (PSI 1-6); higher = more stable;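 further: lentivirally expressed fusions sorted by FACS into six bins by GFP to DsRed ratio, PSI derived from sequencing read proportions per bin multiplied by bin number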
- conditions: c terminus: a fixed tail appended
readout_type: protein stability index

| variant_label | numeric_result |
| --- | --- |
| F17E | 3.01 |
| F1Y | 1.55 |
| C20L | 2.18 |
| H21A | 2.41 |
| C18Y | 1.14 |
| K9E | 2.14 |
| Y19W | 1.28 |
| R10S | 1.82 |
| K11M | 2.29 |
| C18R | 1.63 |
| S7H | 1.59 |
| H8L | 1.1 |
| S16W | 2.06 |
| F17S | 1.78 |
| G15H | 2.07 |
| H8W | 2.59 |
| F1C | 4.1 |
| C4E | 2.01 |
| D23N | 1.92 |
| D23C | 1.28 |
| S16D | 1.88 |
| G6H | 1.94 |
| R12W | 2.9 |
| A5T | 1.38 |
| C18G | 2.18 |
| G15L | 3.16 |
| R10M | 1.9 |
| S14P | 1.93 |
| G15F | 1.8 |
| R10W | 1.92 |
| H8C | 2.37 |
| R10H | 1.68 |
| R10D | 2.02 |
| C20N | 1.99 |
| K9L | 1.99 |
| Y3N | 2.67 |
| S14I | 1.64 |
| S24E | 2.51 |
| C4V | 2.27 |
| F17G | 2.19 |
| Y3L | 2.96 |
| S13G | 1.56 |
| C2E | 2.05 |
| C20G | 1.99 |
| P22T | 1.32 |
| C2G | 2.7 |
| Y19R | 3.17 |
| D23Y | 2.06 |
| F1D | 4.2 |
| Y3R | 2.3 |
| P22L | 1.63 |
| S16T | 2.29 |
| Y19C | 2.86 |
| C18W | 2.99 |
| D23H | 1.88 |
| G15C | 1.5 |
| Y3M | 2.02 |
| G6P | 1.34 |
| S7E | 2.2 |
| G15S | 2.17 |
| K11E | 1.87 |
| C4K | 2.07 |
| R12M | 1.54 |
| D23R | 1.99 |
| C18I | 2.27 |
| A5S | 2 |
| C4S | 2.55 |
| Y19F | 2.31 |
| Y3W | 2.88 |
| C4D | 1.74 |
| G15R | 1.62 |
| G6S | 2.39 |
| K9D | 1.99 |
| K9Q | 2.01 |
| F1N | 3.81 |
| K11F | 1.68 |
| F17M | 2.15 |
| D23I | 1.83 |
| S16I | 2.49 |
| Y3C | 1.75 |
| S7F | 2.54 |
| S16P | 1.36 |
| S7I | 1.75 |
| G15D | 2.25 |
| S24I | 2.03 |
| C18N | 2.2 |
| G6T | 1.55 |
| R12K | 1.97 |
| H8N | 2.19 |
| F17P | 2.98 |
| A5N | 2.03 |
